- Target desc: Cathepsin K (Homo sapiens, UniProt P43235)
- Sequence (P43235 115-329, species assumed): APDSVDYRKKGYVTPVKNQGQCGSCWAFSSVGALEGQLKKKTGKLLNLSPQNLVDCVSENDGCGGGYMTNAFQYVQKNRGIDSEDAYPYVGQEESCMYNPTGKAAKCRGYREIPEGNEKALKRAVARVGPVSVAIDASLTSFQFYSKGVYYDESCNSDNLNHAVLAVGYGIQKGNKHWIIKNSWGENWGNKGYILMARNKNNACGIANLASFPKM
- Experiment: Cathepsin K inhibition, fluorogenic peptide substrate kinetic assay (selectivity)
- Assay type: biochemical
- Settings: ratio of cathepsin K inhibition constant to cathepsin S inhibition constant
Quantity: Selectivity for Cat. S over Cat. K

Below are worked cases with known answers.
Compound smiles: CC(C)[C@@H](CN1CC(C)(C)c2cc(F)ccc21)NC(=O)O[C@H](C(=O)N1CCOCC1)C1CCCCC1
Quantity: Selectivity for Cat. S over Cat. K
Recorded measurement: + (+, >10)

Compound smiles: C[C@@H](CNc1ccc(OC(F)(F)F)cc1)NC(=O)[C@@H](CC(=O)N1CCOCC1)c1ccc(C(F)(F)F)cc1
Quantity: Selectivity for Cat. S over Cat. K
Recorded measurement: + (+, >10)

Compound smiles: CC(=O)N1CCN(C(=O)[C@H](CC2CCCCC2)OC(=O)N[C@@H](C)CN2c3ccc(F)cc3CC2(C)C)CC1
Quantity: Selectivity for Cat. S over Cat. K
Recorded measurement: + (+, >10)

Compound smiles: COc1ccc([C@H](CC(=O)N2CCOCC2)C(=O)N[C@@H](C)CNc2ccc(OC(F)(F)F)cc2)cc1
Quantity: Selectivity for Cat. S over Cat. K
Recorded measurement: ++ (++, >100)

Compound smiles: CC(C)[C@@H](CNc1ccc(OC(F)(F)F)cc1)NC(=O)[C@@H](CC(=O)N1CCOCC1)c1ccc(F)cc1
Quantity: Selectivity for Cat. S over Cat. K
Recorded measurement: + (+, >10)

Would you kindly share the measured Selectivity for Cat. S over Cat. K for C[C@@H](CNc1ccc(OC(F)(F)F)cc1)NC(=O)[C@@H](CC(=O)N1CCOCC1)CC1CCCC1 ?
++ (++, >100)

Would you kindly share the measured Selectivity for Cat. S over Cat. K for C[C@@H](CNc1ccc(OC(F)(F)F)cc1)NC(=O)[C@H](CC1CCCC1)[C@@H](C)C(=O)N1CCOCC1 ?
+ (+, >10)
